Test system: HEK-293T
Experiment: Multiplex assay against HEK293T
Format: toxicity, cell-based
Details: human, 24 h, 10 µM, compound concentration 10 uM, replicate 2
Label 1.0 when Population Pyknosed Nuclei (%) < 20%; otherwise 0.0.

Bench note: check whether CCCS(=O)(=O)c1nc(NC2CC2)cc(-c2ccc3c(ccn3C3CC(C)(C)NC(C)(C)C3)c2)n1 shows Population Pyknosed Nuclei (%) below 20%
0.0

Bench note: check whether O=C(Nc1ccc(Cl)cc1)Nc1cccc(-c2cccc(N3CCCC3)n2)c1 shows Population Pyknosed Nuclei (%) below 20%
0.0

Bench note: check whether O=C(Cc1ccc(-c2ccc(OCCN3CCOCC3)cc2)cn1)NCc1ccccc1 shows Population Pyknosed Nuclei (%) below 20%
0.0

Bench note: check whether CCOc1cc2ncc(C#N)c(Nc3ccc(OCc4ccccn4)c(Cl)c3)c2cc1NC(=O)/C=C/CN(C)C shows Population Pyknosed Nuclei (%) below 20%
1.0

Bench note: check whether O=C(Nc1ccc(-c2ccnc(Nc3ccc(N4CCOCC4)cc3)n2)cc1)[C@@H]1CCCN1 shows Population Pyknosed Nuclei (%) below 20%
0.0

Bench note: check whether CNC(=O)c1ccc(Nc2nc(OC3CCCC3)c3c(-c4ccc5nc(C)oc5c4)c[nH]c3n2)c(OC)c1 shows Population Pyknosed Nuclei (%) below 20%
1.0

Bench note: check whether COc1cc(N2CCN(C)CC2)ccc1Nc1ncc2c(n1)N(C)c1ccccc1C(=O)N2C shows Population Pyknosed Nuclei (%) below 20%
0.0

Bench note: check whether CNc1cc(Oc2cc(C(=O)Nc3cc(N4CCN(C)CC4)cc(C(F)(F)F)c3)ccc2C)ncn1 shows Population Pyknosed Nuclei (%) below 20%
0.0

Bench note: check whether S=C(NCCCc1c[nH]cn1)NCCCN(Cc1ccc(Cl)c(Cl)c1)c1ccc(Br)cn1 shows Population Pyknosed Nuclei (%) below 20%
0.0

Bench note: check whether CCn1cc(-c2ccnc3[nH]c(-c4cccc(CN(C)C)c4)cc23)c(-c2ccc(NC(=O)N(C)C)cc2)n1 shows Population Pyknosed Nuclei (%) below 20%
1.0

Bench note: check whether CCCS(=O)(=O)Nc1ccc(F)c(C(=O)c2c[nH]c3ncc(Cl)cc23)c1F shows Population Pyknosed Nuclei (%) below 20%
1.0

Bench note: check whether Cl.Oc1ccc2c3c1O[C@H]1c4[nH]c5c(c4C[C@@]4(O)[C@@H](C2)N(CC2CC2)CC[C@]314)C[C@@]1(O)[C@H]2Cc3ccc(O)c4c3[C@@]1(CCN2CC1CC1)[C@H]5O4 shows Population Pyknosed Nuclei (%) below 20%
0.0

Bench note: check whether C=C1/C(=C\C=C2/CCC[C@]3(C)[C@@H]([C@H](C)/C=C/[C@H](C)C(C)C)CC[C@@H]23)C[C@@H](O)C[C@@H]1O shows Population Pyknosed Nuclei (%) below 20%
0.0

Bench note: check whether NC(=O)c1cccc(-c2cc(Nc3ccc(OC(F)(F)F)cc3)ncn2)c1 shows Population Pyknosed Nuclei (%) below 20%
1.0

Bench note: check whether CCN1CCN(c2ccc(Nc3cc(N(C)C(=O)Nc4c(Cl)c(OC)cc(OC)c4Cl)ncn3)cc2)CC1 shows Population Pyknosed Nuclei (%) below 20%
1.0

Bench note: check whether O=C(Nc1cccnn1)N1CCC(=Cc2cccc(Oc3ccc(C(F)(F)F)cn3)c2)CC1 shows Population Pyknosed Nuclei (%) below 20%
1.0

Bench note: check whether CN(C)C(=O)C(CCN1CCC(O)(c2ccc(Cl)cc2)CC1)(c1ccccc1)c1ccccc1.Cl [LOPERAMIDE HYDROCHLORIDE] shows Population Pyknosed Nuclei (%) below 20%
0.0

Bench note: check whether CCOC(=O)c1c(C)[nH]c2ccc3c(c12)CN1CCc2cc(OC)ccc2C1O3 (stereo not drawn) shows Population Pyknosed Nuclei (%) below 20%
0.0

Bench note: check whether C=CCn1c(=O)c2cnc(Nc3ccc(N4CCN(C)CC4)cc3)nc2n1-c1cccc(C(C)(C)O)n1 shows Population Pyknosed Nuclei (%) below 20%
0.0

Bench note: check whether COC(=N)c1nc2ccc3ncnc(Nc4ccc(OC)cc4F)c3c2s1 shows Population Pyknosed Nuclei (%) below 20%
1.0

Bench note: check whether COCC(=O)NC/C=C/c1ccc2ncnc(Nc3ccc(Oc4ccc(C)nc4)c(C)c3)c2c1 shows Population Pyknosed Nuclei (%) below 20%
0.0

Bench note: check whether Cc1ccc(C(=O)Nc2cccc(C(F)(F)F)c2)cc1Nc1nc(-c2cccnc2)nc2c1cnn2C shows Population Pyknosed Nuclei (%) below 20%
0.0

Bench note: check whether O=C1N/C(=N/c2ccccc2F)S/C1=C\c1ccc(C(=O)O)cc1 shows Population Pyknosed Nuclei (%) below 20%
0.0

Bench note: check whether O=C1NC(=O)C(c2cnc3ccccn23)=C1c1cn2c3c(cc(F)cc13)CN(C(=O)N1CCCCC1)CC2 shows Population Pyknosed Nuclei (%) below 20%
0.0

Bench note: check whether Cc1ccc2nc(NCCN)c3ncc(C)n3c2c1.O=C(O)C(F)(F)F.O=C(O)C(F)(F)F shows Population Pyknosed Nuclei (%) below 20%
1.0

Bench note: check whether CCCn1c(=O)c2[nH]c(-c3cnn(Cc4cccc(C(F)(F)F)c4)c3)nc2n(CC)c1=O shows Population Pyknosed Nuclei (%) below 20%
0.0

Bench note: check whether Cl.O=c1c2cccn2c2ccccc2n1CCCN1CCC(c2ccc(Cl)cc2)CC1 shows Population Pyknosed Nuclei (%) below 20%
0.0

Bench note: check whether CN1C2CCC1CC(OC(c1ccc(F)cc1)c1ccc(F)cc1)C2.Cl (stereo not drawn) shows Population Pyknosed Nuclei (%) below 20%
0.0

Bench note: check whether COc1ccc(S(=O)(=O)N(CCO)c2ccccc2CN(C)C/C=C/c2ccc(Cl)cc2)cc1.O=P(O)(O)O shows Population Pyknosed Nuclei (%) below 20%
1.0

Bench note: check whether Cc1cc(C)c(S(=O)(=O)N(Cc2ccc(-c3cccc(S(C)(=O)=O)c3)cc2)Cc2ccc(C(F)(F)F)o2)c(C)c1 shows Population Pyknosed Nuclei (%) below 20%
1.0

Bench note: check whether CN1CCN(C(=O)C(C)(C)c2ccc(C(=O)Nc3cn4cc(-c5cc(C(C)(C)C)cc(C(C)(C)C)c5)ccc4n3)cc2)CC1 shows Population Pyknosed Nuclei (%) below 20%
1.0

Bench note: check whether Cn1nc(C(F)(F)F)cc1-c1cnc(N2CCc3cc(S(=O)(=O)Nc4c(F)cc(Cl)cc4F)cc(N4CCCC4=O)c32)nc1 shows Population Pyknosed Nuclei (%) below 20%
1.0

Bench note: check whether CCc1cccc(CC)c1NC(=O)c1nn(C)c2c1CCc1cnc(Nc3ccc(N4CCN(C)CC4)cc3OC)nc1-2 shows Population Pyknosed Nuclei (%) below 20%
1.0
